Attribution: paper PMC9698340

- Test system: PC3 cells
- assay: CCK-8 antiproliferation assay, PC3
- Format: cell-based
- details: Homo sapiens, PC-3; 20 μM, 48 h, CCK-8, mean ± SD; read-out: Inhibition Rate (%) at 20 μM, PC3
property: inhibition at 20 µM (%)
Enter your answer as a number in %; do not include the unit.

* COc1cc(-c2ccc(/C=N/NC(=O)c3ccccc3)o2)c(OC)cc1-c1ccc2nccnc2c1 | 8.09

Enquiry: # return recorded inhibition at 20 µM for input COc1cc(-c2ccc(/C=N/NC(=O)c3ccc(O)cc3)o2)c(OC)cc1-c1cnc2ccccc2n1
Return: 38.7

Enquiry: Give inhibition at 20 µM for the following molecule: COc1cc(-c2ccc(/C=N/NC(=O)c3cccc(C)c3)o2)c(OC)cc1-c1ccc2nccnc2c1
Return: 13.8

Enquiry: Tell me its inhibition at 20 µM given COc1cc(-c2cc(OC)c3ccccc3c2OC)c(OC)cc1-c1ccc(/C=N/NC(=O)c2ccccn2)o1 as the entry.
Return: 0.33

---

- System: PC3 cells
- assay: CCK-8 antiproliferation assay, PC3
- Type: cell-based
- details: Homo sapiens, PC-3; 20 μM, 48 h, CCK-8, mean ± SD; read-out: Inhibition Rate (%) at 20 μM, PC3
We begin with a simple list: items and their reported inhibition at 20 µM.
Express the result in % but write the number alone.

Enquiry: Identify measured inhibition at 20 µM corresponding to O=C(N/N=C/c1ccc([N+](=O)[O-])o1)c1ccc(O)cc1 [Nifuroxazide, nifuroxazide, reference compound]
Return: 75.3

Enquiry: Please report inhibition at 20 µM for the following compound: COc1cc(-c2ccc(/C=N/NC(=O)c3cccc(C)c3)o2)c(OC)cc1-c1cnc2ccccc2n1
Return: 4.73

Enquiry: Identify inhibition at 20 µM associated with the compound COc1cc(-c2cc(OC)c3ccccc3c2OC)c(OC)cc1-c1ccc(/C=N/NC(=O)c2ccc(-c3ccccc3)cc2)o1
Return: 2.4

Enquiry: Consider the compound COc1cc(-c2cc(OC)c3ccccc3c2OC)c(OC)cc1-c1ccc(/C=N/NC(=O)c2ccc(F)cc2)o1 and give its recorded inhibition at 20 µM.
Return: 11.7

Enquiry: For the compound COc1cc(-c2ccc(/C=N/NC(=O)c3ccc(-c4ccccc4)cc3)o2)c(OC)cc1-c1ccc2nccnc2c1 , give its reported inhibition at 20 µM.
Return: 9.37

---

Listing: pIC50 of selected compounds
- System: A549 cells
- assay: CCK-8 antiproliferation assay, A549
- Assay type: cell-based
- details: Homo sapiens, 48 h, CCK-8, read-out: IC50 ± SD, A549
In textbook form, pIC50 equals minus log to base ten of the concentration in mol/L.

• O=C(N/N=C/c1ccc([N+](=O)[O-])o1)c1ccc(O)cc1 [Nifuroxazide, nifuroxazide, reference compound] = 5.09

Proceeding to the next compound to report its pIC50.
Enquiry: Identify measured pIC50 obtained with A549 cells for COc1cc(-c2ccc(/C=N/NC(=O)c3ccc(O)cc3)o2)c(OC)cc1-c1ccc2nccnc2c1 [QW12] .
Return: 4.69

---

- System: PC3 cells
- assay: CCK-8 antiproliferation assay, PC3
- Format: cell-based
- details: Homo sapiens, PC-3; 20 μM, 48 h, CCK-8, mean ± SD; read-out: Inhibition Rate (%) at 20 μM, PC3
We use 20% as the dividing line for inhibition at 20 µM: on or above the line is met, below is not met.

• COc1cc(-c2ccc(/C=N/NC(=O)c3ccc(-c4ccccc4)cc3)o2)c(OC)cc1-c1cnc2ccccc2n1 = not met
• COc1cc(-c2cc(OC)c3ccccc3c2OC)c(OC)cc1-c1ccc(/C=N/NC(=O)c2cccnc2)o1 = not met
• COc1cc(-c2cc(OC)c3ccccc3c2OC)c(OC)cc1-c1ccc(/C=N/NC(=O)c2ccc(O)cc2)o1 = not met
• COc1cc(-c2cc(OC)c3ccccc3c2OC)c(OC)cc1-c1ccc(/C=N/NC(=O)c2ccncc2)o1 = not met
• COc1cc(-c2cc(OC)c3ccccc3c2OC)c(OC)cc1-c1ccc(/C=N/NC(=O)c2ccccc2)o1 = not met

Enquiry: Quick check: does COc1cc(-c2ccc(/C=N/NC(=O)c3cccnc3)o2)c(OC)cc1-c1ccc2nccnc2c1 have inhibition at 20 µM greater than or equal to 20%?
Return: met

Enquiry: Dear colleague, could you confirm whether COc1cc(-c2ccc(/C=N/NC(=O)c3cccnc3)o2)c(OC)cc1-c1cnc2ccccc2n1 has inhibition at 20 µM at or above 20%?
Return: met

Enquiry: Check this compound for inhibition at 20 µM at or above 20%: COc1cc(-c2ccc(/C=N/NC(=O)c3ccccc3)o2)c(OC)cc1-c1cnc2ccccc2n1
Return: not met
